test: Long-term storage stability of antibiotics in combination with fosfomycin spiked in plasma/CAMHB (−30 °C, −80 °C); assay type: physicochemical; conditions: CAMHB samples stored at −30 °C, 4 weeks
readout.kind: Stability verdict (within ±15% of nominal)

C[C@@H](O)[C@H]1C(=O)N2C(C(=O)O)=C(S[C@@H]3CN[C@H](C(=O)N(C)C)C3)[C@H](C)[C@H]12 ... instability
C[C@@H](O)[C@H]1C(=O)N2C(C(=O)O)=C(S[C@@H]3CN[C@H](CNS(N)(=O)=O)C3)[C@H](C)[C@H]12 ... instability
C[C@H]1[C@H](NC(=O)/C(=N\OC(C)(C)C(=O)O)c2csc(N)n2)C(=O)N1S(=O)(=O)O ... instability
CCN1CCN(C(=O)N[C@@H](C(=O)N[C@@H]2C(=O)N3[C@@H]2SC(C)(C)[C@@H]3C(=O)O)c2ccccc2)C(=O)C1=O ... instability
NC(=O)[C@@H]1CC[C@@H]2CN1C(=O)N2OS(=O)(=O)O ... instability

// below: Stability verdict (within ±15% of nominal) requested for another compound
What measured Stability verdict (within ±15% of nominal) goes with CO/N=C(\C(=O)N[C@@H]1C(=O)N2C(C(=O)[O-])=C(C[N+]3(C)CCCC3)CS[C@H]12)c1csc(N)n1 [Cefepime, cefepime] ?
instability
